clearance values for the compounds below.
protocol-details: Plasma clearance in rat at 2 mg/kg, iv
Type: ADME, organism-based
Set-up: dose 2 mg/kg, route intravenous
Hi, when you answer, please include the unit after the number. Thanks!

1. COC(=O)N[C@H](C(=O)N[C@@H](Cc1ccc(-c2ccc(OC)nc2)cc1)[C@@H](O)C[C@@H](Cc1cccc(OC(F)(F)F)c1)C(=O)N[C@H]1[C@H](C)CCC[C@H]1O)C(C)(C)C : 90 mL/min/kg
2. COC(=O)N[C@H](C(=O)N[C@@H](Cc1ccc(-c2ccc(OC)nc2)cc1)[C@@H](O)C[C@@H](Cc1ccccc1Cl)C(=O)N[C@H]1[C@H](C)CCC[C@H]1O)C(C)(C)C : 70 mL/min/kg
3. COC(=O)N[C@H](C(=O)N[C@@H](Cc1ccc(-c2ccc(OC)nc2)cc1)[C@@H](O)C[C@@H](Cc1ccccc1F)C(=O)N[C@H]1c2ccsc2CC[C@H]1O)C(C)(C)C : 80 mL/min/kg

Next item in the queue.
Dear colleague, I am looking for the recorded clearance of the following compound: COC(=O)N[C@H](C(=O)N[C@@H](Cc1ccc(-c2ccc(OC)nc2)cc1)[C@@H](O)C[C@@H](Cc1ccccc1F)C(=O)N[C@H]1[C@H](C)CCC[C@H]1O)C(C)(C)C
90 mL/min/kg
